target: CD73 (Homo sapiens, UniProt P21589); construct: purchased R&D system; assay: CD73 Biochemical IC50 Assay; conditions: final AMP 15 uM, final CD73 0.3 nM, 25 mM Tris pH 7.4, 5 mM MgCl2, no phosphate
With a cut-off of 0.02 µM, any IC50 strictly below it is called Condition met; any IC50 meeting it or above is called Condition not met.

INSERT INTO measurements (molecule, group_label) VALUES
  ('O=c1[nH]cc(-c2cc([C@@H]3C[C@H]3c3ccc(F)c(F)c3)c3nccn3n2)c(=O)[nH]1 (racemic) [Example 33]', 'Condition met'),
  ('O=c1[nH]cc(-c2cc([C@H]3C[C@@H]3c3ccccc3)c3nccn3n2)c(=O)[nH]1 (racemic) [Example 104]', 'Condition not met'),
  ('COc1cccc([C@H]2C[C@@H]2c2cc(-c3c[nH]c(=O)[nH]c3=O)nn3ccnc23)c1 [Example 114]', 'Condition not met');

--- query ---
Req: # check: IC50 < 0.02 µM for O=c1[nH]cc(-c2cc([C@@H]3C[C@H]3c3ccc(OC(F)(F)F)cc3)c3nccn3n2)c(=O)[nH]1 (racemic) [Example 48]
Resp: Condition not met

* * *

molecular target: CD73 activity in MDA-MB-231-GFP cells (Homo sapiens); construct: endogenous in cells; host or cells: MDA-MB-231-GFP cells; assay: MDA-MB-231 Cell Based CD73 Activity Assay (DMEM); details: 3000 cells per well, DMEM medium with 10% human plasma, overnight compound treatment, AMP 200 uM
MEASURE: pEC50
In simple prose, pEC50 is minus the logarithm base ten of a concentration in moles per litre.

INSERT INTO assay_data (molecule, measured_on, measure, val) VALUES
  ('O=c1[nH]cc(-c2cc([C@H]3C[C@@H]3c3ccc4c(F)nn(CC(F)(F)F)c4c3)c3nccn3n2)c(=O)[nH]1 (racemic)', 'CD73 activity in MDA-MB-231-GFP cells (Homo sapiens)', 'pEC50', 9.85),
  ('O=c1[nH]cc(-c2cc([C@H]3C[C@@H]3c3ccc(C(F)(F)F)cc3)c3ncc(F)n3n2)c(=O)[nH]1 (racemic)', 'CD73 activity in MDA-MB-231-GFP cells (Homo sapiens)', 'pEC50', 7.62),
  ('O=c1[nH]cc(-c2cc(N3CCC(CC(F)F)C3)c3nccn3n2)c(=O)[nH]1 (racemic)', 'CD73 activity in MDA-MB-231-GFP cells (Homo sapiens)', 'pEC50', 6.95);

The recorded pEC50 for O=c1[nH]cc(-c2cc([C@H]3C[C@@H]3c3ncc(C(F)(F)F)cn3)c3nccn3n2)c(=O)[nH]1 (racemic) is 7.64

The recorded pEC50 for O=c1[nH]cc(-c2cc([C@H]3C[C@@H]3c3ccnc4ccccc34)c3nccn3n2)c(=O)[nH]1 (racemic) is 6.82

The recorded pEC50 for N#Cc1cccc([C@H]2C[C@@H]2c2cc(-c3c[nH]c(=O)[nH]c3=O)nn3ccnc23)c1F (racemic) is 8.13

* * *

Target: CD73 (Homo sapiens, UniProt P21589)
Construct: purchased R&D system
Sequence (P21589 27-549): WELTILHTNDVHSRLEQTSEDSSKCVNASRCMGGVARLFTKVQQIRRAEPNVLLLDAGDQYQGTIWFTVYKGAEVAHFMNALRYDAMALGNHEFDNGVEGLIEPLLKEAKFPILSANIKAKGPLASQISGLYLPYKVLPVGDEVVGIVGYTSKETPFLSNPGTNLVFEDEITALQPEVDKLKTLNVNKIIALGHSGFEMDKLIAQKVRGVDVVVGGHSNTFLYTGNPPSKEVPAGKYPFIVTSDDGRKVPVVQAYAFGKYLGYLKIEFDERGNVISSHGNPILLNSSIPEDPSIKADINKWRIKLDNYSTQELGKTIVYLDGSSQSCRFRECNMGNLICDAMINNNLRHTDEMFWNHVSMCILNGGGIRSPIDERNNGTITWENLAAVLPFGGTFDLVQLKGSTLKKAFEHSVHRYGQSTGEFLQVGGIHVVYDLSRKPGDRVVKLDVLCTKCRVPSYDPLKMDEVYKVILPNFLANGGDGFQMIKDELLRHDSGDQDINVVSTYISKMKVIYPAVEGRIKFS
Format: biochemical
Details: 1 mM NaH2PO4 in enzyme buffer, final AMP 15 uM, final CD73 0.3 nM
MEASURE: pIC50
In simple prose, pIC50 is minus the logarithm base ten of a concentration in moles per litre.

Consider the following illustrative entries.
INSERT INTO assay_data (molecule, val) VALUES
  ('O=c1[nH]cc(-c2cc([C@H]3C[C@@H]3c3ccc(F)cc3F)n3ncnc3n2)c(=O)[nH]1', 9.15),
  ('O=c1[nH]cc(-c2cc([C@@H]3C[C@H]3c3ccc(F)cc3F)c3nccn3n2)c(=O)[nH]1 (racemic)', 9.03),
  ('O=c1[nH]cc(-c2cc([C@H]3C[C@@H]3c3ccc(OC(F)(F)F)cc3)c3ncc(F)n3n2)c(=O)[nH]1 (racemic)', 8.42),
  ('N#Cc1cccc([C@H]2C[C@@H]2c2cc(-c3c[nH]c(=O)[nH]c3=O)nn3ccnc23)c1', 8.86),
  ('O=c1[nH]cc(-c2cc([C@H]3C[C@@H]3c3ccnc(C(F)(F)F)n3)c3nccn3n2)c(=O)[nH]1 (racemic)', 7.47),
  ('O=c1[nH]cc(-c2cc([C@@H]3C[C@H]3c3ccc(F)cc3)c3nccn3n2)c(=O)[nH]1 (racemic)', 8.68);

Alright, here's another molecule for you.
The recorded pIC50 for NC(=O)c1ccc([C@H]2C[C@@H]2c2cc(-c3c[nH]c(=O)[nH]c3=O)nn3ccnc23)cc1 (racemic) is 9.06
